- Tested on: UO-31
- protocolDetails: NCI tumour cell line growth inhibition, 48 h
Activity calls are given as the source filed them. Cut-off read from the data, not from the text of the source: active = GI50 up to about 1.1 µM and inactive = higher.
Pick one: yes (1) for active, no (0) for inactive

CCOC(=O)C(=O)NC12CC3CC(CC(C3)C1)C2 :: no (0)
N=C1/C(=C/c2ccccc2)C(=O)N=C2SC=NN12 :: no (0)
Cc1ccc(NC(=O)/C(=N/NC(=O)CC#N)C2C(=O)N(c3ccccc3)N=C2N)cc1C (configuration not stated) :: no (0)
C=C(COC(C)=O)CC(/C=C(\C)CCC=C(C)C)OC(C)=O (configuration not stated) :: no (0)
COc1cc(OC)c(-c2ccc(OCc3ccccc3)c3c(OC)cc(C)cc23)c2c1C(C)=N[C@H](C)C2 :: no (0)

Name the outcome recorded for O=C1C(Cl)C(c2cc3cc(Br)ccc3nc2Cl)N1c1ccc(F)c(Cl)c1 (configuration not stated) in the assay.
yes (1)

Do the same for "CCOC(=O)c1cc(Br)c(-c2onc(C)c2Br)n1C" please
no (0)

Do the same for COC12OCCN(CCO)C1=CC(=O)C1(C)N=NC(C)C12 (configuration not stated) please
no (0)

* * *

- Tested on: SK-MEL-5
- protocolDetails: NCI tumour cell line growth inhibition, 48 h
The source made the active and inactive calls. Rule as the data show it: active = GI50 up to about 1.1 µM and inactive = higher.
Recorded GI50 for the following compounds

Cc1ccc(S(=O)(=O)N/N=C2\CC3CC4CCC2C4C3)cc1 (stereo unspecified) :: > 100 µM (inactive)
COc1ccc(/N=c2\ssc3c(=S)ssc23)cc1 :: 19.4 µM (inactive)
Cn1c(N)nc(-c2ccc(Cl)cc2)c1SSc1c(-c2ccc(Cl)cc2)nc(N)n1C :: 1.82 µM (inactive)

State its GI50 on SK-MEL-5: "CCOC(=N)CC(=O)c1ccccc1"
> 100 µM (inactive)

Do the same for "CC1=NN(c2nc(N)nc(/C(C#N)=C/c3ccccc3O)n2)C(C)(C)C1" please
15.5 µM (inactive)

Do the same for N=C(N)NC1C(O)C(O)C(O)C(NC(=N)N)C1O (stereo unspecified) please
> 100 µM (inactive)

* * *

- System: LOX IMVI
- protocolDetails: NCI tumour cell line growth inhibition, 48 h
Activity calls are given as the source filed them. Rule as the data show it: active = GI50 up to about 1.1 µM and inactive = higher.
Pick one: active, inactive

Name the outcome recorded for "CCN(CC)CCCNc1nc(=O)[nH]c(C)c1C(=O)Nc1ccc2c(c1)c1ccccc1n2CC" in the assay.
inactive

Do the same for CSc1ncc2c(n1)-c1ccccc1OC2NC(C)(C)C (stereo unspecified) please
inactive

Do the same for CC1(C)SC2C(NC(=O)C(C(=O)O)c3ccccc3)C(=O)N2C1C(=O)O (stereo unspecified) please
inactive

Do the same for "CCOC(=O)/C=C(\C(=O)OCC)n1ccc(=O)n(Cc2cnnn2COCCOC(C)=O)c1=O" please
inactive

Do the same for CC(C)=CC(=O)C1c2cccc(O)c2C(=O)c2c(O)cc(C)cc21 (stereo unspecified) please
inactive

* * *

- System: NCI-H226
- protocolDetails: NCI tumour cell line growth inhibition, 48 h
Activity calls are given as the source filed them. No stated cut-off is given here; in the data, active = GI50 up to about 1.1 µM and inactive = higher. Where a SMILES comes first, the peptide text is derived from it. [ ]: non-standard residue; d: D form. Phe(F5) = N[CH](Cc1c(F)c(F)c(F)c(F)c1F)C(=O)O
Recorded GI50 for the following compounds

Field: example entries. Status: answers known.
C=C(C)CNCC(=C)C.Oc1c(Cl)c(Cl)c(Cl)c(Cl)c1Cl :: 13.9 µM (inactive)
CC(C)C1(O)C(c2ccccc2)=C(c2ccccc2)C(c2ccccc2)=C1c1ccccc1 :: 7.26 µM (inactive)
COC(=O)/C(C#N)=C(\Nc1ccccc1)N1CCCC1 :: > 100 µM (inactive)
CC(C)C(C/C=C1\CC(CO)(COC(=O)CC(C(C)C)C(C)C)OC1=O)C(C)C (stereo unspecified) :: 9.04 µM (inactive)
Sc1cnnc2ccc(Br)cc12 :: 49.3 µM (inactive)

# lookup: GI50 of "Cc1cc(N2CCCC2)c([N+](=O)[O-])cc1[N+](=O)[O-]"
> 100 µM (inactive)

Do the same for "C=C1CCCCCCCCC/C=C/1SCCCSC" please
> 100 µM (inactive)

Do the same for "N#Cc1ccc(Oc2ccccc2)cc1C#N" please
> 100 µM (inactive)

Do the same for Cc1ccc(O)c(C2=NNC(c3cccc(Br)c3)C2)c1 (stereo unspecified) please
71.6 µM (inactive)

Do the same for CC(C)(C)OC(=O)NCCCCC1NC(=O)[C@@H]2Cc3c([nH]c4ccccc34)C(C3CCCCC3)N2C1=O (stereo partly specified) please
75 µM (inactive)

Do the same for "Cc1cc(=O)n2nc(CCl)sc2n1" please
13.9 µM (inactive)

Do the same for COC(=O)C(CC(C)C)NC(=O)C(Cc1c[nH]cn1)NC(=O)CNC(=O)C(NC(=O)C(C)NC(=O)C(Cc1c[nH]c2ccccc12)NC(=O)C(CCC(=O)O)NC(=O)C(N)Cc1c(F)c(F)c(F)c(F)c1F)C(C)C (stereo unspecified) (H-[Phe(F5)]EWAVGHL-OMe; configuration not given here) please
> 12.5 µM (inactive)

Do the same for Cn1c(=O)n2n(c1=O)C1C(=CC2)C2C=CC1n1c(=O)n(C)c(=O)n12 (stereo unspecified) please
> 100 µM (inactive)

Do the same for O=C1c2ccccc2N2Oc3ccccc3C12c1ccccc1 (stereo unspecified) please
59.4 µM (inactive)

Do the same for "CC(C)(CN1CCCCC1)C(=O)/C=C/c1ccc(Cl)cc1" please
4.41 µM (inactive)

Do the same for "[N-]=[N+]=NC1=NNC2(C(=O)N1)c1ccccc1-c1ccccc12" please
> 100 µM (inactive)

Do the same for "COC(=O)/C=C1\C(=O)N(C(C)=O)c2ccccc21" please
12.4 µM (inactive)

Do the same for "COc1ccc(NC(=O)c2cc(OC)cc(OC)c2)cc1" please
31.7 µM (inactive)

Do the same for "N=C(N)c1ccc2oc3ccc(C(=N)N)cc3c(=O)c2c1" please
> 100 µM (inactive)

Do the same for "CN(C)c1nc(N(C)C)nc(N(C)C23CC4CC(CC(C4)C2)C3)n1" please
32.6 µM (inactive)

Do the same for "c1ccc2c(c1)SCCc1cn[nH]c1-2" please
24.7 µM (inactive)

* * *

- System: NCI/ADR-RES
- protocolDetails: NCI tumour cell line growth inhibition, 48 h
Calls of active or inactive are those of the source. No stated cut-off is given here; in the data, active = GI50 up to about 1.1 µM and inactive = higher.
Pick one: active, inactive

Solved entries (count: 2):
COc1ccc2c(c1)c1c(n2CCN(C)C)-c2ccccc2CC1 :: inactive
C=C(C)CC1=C(OCC)C(OC)(OCC)C1=O (stereo unspecified) :: inactive

Name the outcome recorded for "NC(=O)c1nnn(-c2ccccc2)c1O" in the assay.
inactive

Do the same for "CCOC(=O)Cc1csc(N/N=C2\C(=O)Nc3ccccc32)n1" please
inactive

Do the same for "N=C(N)c1ccc2oc3ccc(C(=N)N)cc3c(=O)c2c1" please
inactive

Do the same for "O=C(NC(=O)c1ccccc1[N+](=O)[O-])Nc1ccc(Oc2ncc(Cl)cn2)c(C(F)(F)F)c1" please
active

Do the same for "COc1ccc(C(=O)Nc2ccc(O)c(=O)cc2)cc1" please
inactive

Do the same for "Nc1cc2ncnn2c(SCC(=O)N/N=C/C(Br)=C\c2ccccc2)n1" please
inactive

Do the same for "Cc1ccc(S(=O)(=O)NC(=O)OC23COCN2COC3)cc1" please
inactive

Do the same for CC(C)(O)C1OCC(C2CCC3(C)C4=CCC5C(C)(C)C(O)CCC5(C)C4CCC23C)CC1O (stereo unspecified) please
inactive

Do the same for "O=C1Nc2ccccc2/C1=N/NS(=O)(=O)c1ccc(C(=O)O)cc1" please
inactive

Do the same for "CN1CCC(OC(=O)Oc2ccccc2)(c2ccccc2)CC1" please
inactive

Do the same for "C#CCNCC(=O)O" please
inactive

Do the same for "COc1ccc2nc3ccc(OC)cc3c(SCCO)c2c1" please
inactive

Do the same for "Cc1ccc(C2=Nc3cc(C)c(Cl)cc3S(=O)(=O)NN2)cc1" please
inactive

Do the same for "Cc1cc(=O)nc(S(=O)(=O)NC(=S)Nc2ccc(Cl)cc2)[nH]1" please
inactive

Do the same for COc1ccccc1C1Nn2c(nc3ccccc3c2=O)N1c1ccc(C)cc1 (stereo unspecified) please
inactive

Do the same for "CC1=C[C@@H](C)C[C@]2(C)CC[C@H](O2)[C@]23CC[C@](C(=O)O)(C[C@H](O2)[C@@H]2O[C@@](C)(CC2=O)[C@@H](O)[C@H]2CC[C@@]4(CCC[C@@H](O4)[C@H](C)C(=O)O[C@H]4C[C@H]([C@]5(O)OCC[C@H](C)[C@@H]5O)O[C@H]4C=C1)O2)O3" please
inactive

Do the same for "O=c1c2c3c(sc2nc2n1N=C(c1ccc(Br)cc1)CS2)CCCC3" please
inactive

Do the same for CC(=O)OCC1OC(Nc2ncc(-c3ccc(C)cc3)s2)C(OC(C)=O)C(OC(C)=O)C1OC(C)=O (stereo unspecified) please
inactive
